test system: P. berghei-ANKA-GFP-LucCON liver stage parasites in HepG2-A16-CD81EGFP cells; test: P. berghei liver stage Pb-Luc assay, Method 1 (UCSD, 1536-well); type: cell-based, Plasmodium berghei; conditions: Plasmodium berghei, 48 h, nominal 1 uM (10 mM stock); […] for 15 mM, 1.2 uM for 12 mM, 2 uM for 20 mM stock; average of 2 wells, 1536-well plate; repeat 2; read-out: Pb-Luc signal, 1 uM, repeat 2; on Pb-Luc signal, 1 uM, repeat 2: reference of the scale not given here
Parameter: activity at 1 µM (%)
API: value field is a number in %; no unit string.

// solved cases for activity at 1 µM follow
- Molecule: "CCCOC(=O)c1c(NC(=O)C(C)Sc2nc(-c3ccccc3)cc(C(F)(F)F)n2)sc(C(=O)N(C)C)c1C (centres unmarked)"
  Readout unit: "%"
  Quantitative readout: 104
- Molecule: "COc1cccc([C@@H]2CCN(Cc3[nH]c4ccccc4c3C)C[C@H]2O)c1"
  Readout unit: "%"
  Quantitative readout: 92.1
- Molecule: "CCOc1ccccc1CN1CCCN(Cc2ccncc2)C(c2ccccc2)CC(=O)NCC1 (centres unmarked)"
  Readout unit: "%"
  Quantitative readout: 89.1
- Molecule: "COc1cccc(CN2CCC(Oc3ccc(-c4noc(C5CC5)n4)cc3)C2)c1 (centres unmarked)"
  Readout unit: "%"
  Quantitative readout: 110
- Molecule: "CC1CCCN(Cc2c(O)ccc3c(=O)c(-c4ccccc4Cl)c(C(F)(F)F)oc23)C1 (centres unmarked)"
  Readout unit: "%"
  Quantitative readout: 115
- Molecule: "Cc1cc(C)cc(C(=O)Nc2ccc3c(N4CCCC4)ncnc3c2)c1"
  Readout unit: "%"
  Quantitative readout: 99.6
- Molecule: "COc1ccc(-c2noc(-c3cccn3CC(=O)Nc3ccccc3F)n2)cc1F"
  Readout unit: "%"
  Quantitative readout: 140

Task item: What activity at 1 µM appears in the records for this molecule with P. berghei-ANKA-GFP-LucCON liver stage parasites in HepG2-A16-CD81EGFP cells? `CCCN1C(CC(C)C)=N[S+](=O)([O-])c2cc(NC(=O)c3ccco3)ccc21`
Reply: 25.4

* * *

system: P. berghei-ANKA-GFP-LucCON liver stage parasites in HepG2-A16-CD81EGFP cells; assay: P. berghei liver stage Pb-Luc assay, Method 1 (UCSD, 1536-well); format: cell-based, Plasmodium berghei; conditions: Plasmodium berghei, Method 1; log10 of molar AC50 from Hill fit; read-out: Log AC50 (converted)
Parameter: AC50 (µM)
Number only, in µM; omit the unit.

Answered cases to consult:
- Compound: "CCC(CC)c1cc([C@H]2CN3CC[C@H]2C[C@@H]3CNC(=O)Cc2cccs2)nc(-c2ccncc2)n1"
  Readout unit: "µM"
  AC50: 5.62
- Compound: "N=c1ccn(Cc2ccc(Cl)c(Cl)c2)cc1"
  Readout unit: "µM"
  AC50: 1.41
- Compound: "CCOc1ccc(NC(=O)c2cc3ccccc3cc2O)cc1"
  Readout unit: "µM"
  AC50: 0.501
- Compound: "C/C(=N\\NC(=O)c1cccc(Br)c1)c1ccccn1"
  Readout unit: "µM"
  AC50: 0.794
- Compound: "Cc1nn2c(c1-c1ccccc1-c1ccccc1)N(CCC(C)C)CCC2"
  Readout unit: "µM"
  AC50: 1

Task item: // returns reported AC50 for input `COc1ccc(CCN2CCC(Nc3nc4ccccc4n3Cc3ccc(F)cc3)CC2)cc1`
Reply: 2.82

Task item: Would you mind doing CC1CCCCN1S(=O)(=O)c1ccc(C(=O)Nc2ccccc2-c2nc3ccccc3[nH]2)cc1 (centres unmarked) as well?
Reply: 0.355

Task item: Consider next the compound `COc1ccc(NC2=C(c3ccc(C(F)(F)F)cc3)C(=O)c3ccccc32)cc1` in the same way.
Reply: 1.78

* * *

tested on: P. berghei-ANKA-GFP-LucCON liver stage parasites in HepG2-A16-CD81EGFP cells; assay: P. berghei liver stage Pb-Luc assay, Method 1 (UCSD, 1536-well); format: cell-based, Plasmodium berghei; conditions: Plasmodium berghei, Method 1; log10 of molar AC50 from Hill fit; read-out: Log AC50 (converted)
Parameter: AC50 (µM)
Could you give me the number in µM? Just the number is fine.

- Compound: "Cc1ccc(Oc2ccc(NC(=O)c3ccco3)cc2)cc1"
  Readout unit: "µM"
  Quantitative readout: 0.1
- Compound: "Cc1ccccc1[S+](=O)([O-])N1CCCC(CCC(=O)NCCN(C)C2CCCCC2)C1 (centres unmarked)"
  Readout unit: "µM"
  Quantitative readout: 1.78

Task item: Give its AC50 value. Item: `CCCc1ccc(OCc2nc(-c3ccc(NC(=O)c4cccs4)cc3)no2)cc1`
Reply: 1.41

Task item: How about this compound: `Cc1ccc(NC2=C(c3ccc(C(F)(F)F)cc3)C(=O)c3ccccc32)cc1F`
Reply: 1.26

* * *

assay: in vitro; details: human, HepG2-A16-CD81EGFP cells, uninfected
Parameter: viability at 48 h, 1 µM (%)
A number alone suffices; assume %.

Past entries and their recorded results:
- Molecule: "COc1cc(C(=O)Nc2ccc3nc(N4CCN(C)CC4)cc(C)c3c2)cc(OC)c1OC [MLS001197839-01]"
  viability at 48 h, 1 µM [%]: 101
- Molecule: "CCc1ccc(Oc2c(C(F)(F)F)oc3c(CN4CCN(CC)CC4)c(O)ccc3c2=O)cc1 [NCGC00101506-01]"
  viability at 48 h, 1 µM [%]: 92.4
- Molecule: "CCN(CC)CCn1c(=N)n(CC(=O)c2ccc(Br)s2)c2ccccc21 [MLS001045932-01]"
  viability at 48 h, 1 µM [%]: 91

Shifting focus to the molecule that follows.
Task item: // query viability at 48 h, 1 µM value for entry Cc1ccc(C)c(NC(=O)CN(C)C(=O)c2ccc(-c3cccc(C(F)(F)F)c3)o2)c1 [MLS001161354-01]
Reply: 98

* * *

test system: Plasmodium falciparum Dd2 asexual blood stage parasites; experiment: microbe, parasite or virus in culture; design: species or system Plasmodium falciparum Dd2 in human erythrocytes; single determination (one 11-point concentration-response curve); conditions: Plasmodium falciparum, DD2, Erythrocyte, 72 h; read-out: AC50
Parameter: AC50 (nM)
// note: answer is a bare numeric in nM

Task item: For the compound shown here, CCOc1ccccc1CN1CCCN(Cc2ccncc2)C(c2ccccc2)CC(=O)NCC1 (stereo not shown) , give the reported AC50.
Reply: 6680

Task item: Same question for `C=CCOC(=O)Nc1nc2c(s1)C[C@@H]1[C@](C)(CO)[C@H](O)CC[C@@]1(C)[C@@H]2CC(=O)NC1CCCCC1` please.
Reply: 3760

Task item: And what about the compound `COc1ccc(CCn2c(=N)c(C(=O)NCc3ccco3)cc3c(=O)n4cccc(C)c4nc32)cc1` ?
Reply: 1680

* * *

Recorded measurements of AC50, one per entry
system: P. falciparum Dd2 Cytb V259L; assay: SYBR Green ABS proliferation assay, NCGC00473217 selected clone F06; format: cell-based, Plasmodium falciparum; details: Plasmodium falciparum, DD2, […]; averaged from three independent replicates; top concentration 29 µM; read-out: Average AC50 (Log[M]), NCGC00473217 clone F06 (Cytb V259L) (converted)
Report as a plain number; the unit M is understood.

Known AC50 results, listed for orientation:
- Smiles: "CCCN1C(CC(C)C)=N[S+](=O)([O-])c2cc(NC(=O)c3sccc3Cl)ccc21"
  Parameter: "AC50"
  Quantitative readout: "3.7e-06"
- Smiles: "CCCN1C(CC(C)C)=N[S+](=O)([O-])c2cc(N[S+](=O)([O-])c3ccc4ccccc4c3)ccc21"
  Parameter: "AC50"
  Quantitative readout: "5.32e-06"
- Smiles: "CCCN1C(CC(C)C)=N[S+](=O)([O-])c2cc(NC(=O)c3cnn4cccnc34)ccc21"
  Parameter: "AC50"
  Quantitative readout: "8.28e-06"

// next entry
Task item: Entry under review: `CCCN1C(CC(C)C)=N[S+](=O)([O-])c2cc(NC(=O)c3ccc(-c4ccccc4)s3)ccc21` . Reported AC50?
Reply: 1.42e-06

* * *

# AC50 annotations
tested on: Plasmodium falciparum Dd2-attB-ScDHODH (transgenic line expressing yeast DHODH), asexual blood stages; construct: Dd2-attB-ScDHODH, the transgenic line that expresses yeast DHODH; assay: organism not typed; parameters: replicate k of 3 (each line is one of three independent assays; the three lines of one compound and parasite line follow each other); conditions: 72 h; n = 1; read-out: Individual replicates / Log AC50 (converted)
Answer format reminder: number followed by unit.

Task item: Consider the compound shown here: `CCOC(=O)c1c2ccc(C(=O)N3CCOCC3)cc2n2ccccc12` What is its recorded AC50?
Reply: 7.1 µM

Task item: Can you check `N=C(N)c1cccc(-c2cnc3c(O)ccc(C(=O)O)c3c2)c1` next?
Reply: 14.2 µM

Task item: Same read-out for `COC(=O)c1ccc(O)c2ncc(N(C)C)cc12` ?
Reply: 14.2 µM

Task item: Follow-up entry: C=CC(=O)Nc1cccc(C(OCCN2CCCCC2)c2cc3nccc(C(=O)OC(C)C)c3s2)c1 (stereo not drawn)
Reply: 7.97 µM

Task item: What do we get for `CN(C)c1cnc2c(O)ccc([S+](=O)([O-])Nc3ccccc3F)c2c1` ?
Reply: 14.2 µM

Task item: Further, for CCOC(=O)c1ccc(O)c2ncc(NCC3CCCN(CCc4ccccc4)C3)cc12 (stereo not drawn) ?
Reply: 6.33 µM

Task item: # iterate: `CCO/C=C(\C#N)C(=O)N1CCCN(c2cc(NCCC(=O)OC)nc(-c3ccccn3)n2)CC1`
Reply: 10 µM

Task item: What would you report for `Cc1ccc2nc(-c3ccccn3)c(Nc3ccccc3C)n2c1` ?
Reply: 5.64 µM

Task item: Note, next up: `Oc1cc(-c2ccc(CN3CCOCC3)c(F)c2)cc2cccnc12`
Reply: 5.03 µM
